System: SR
test.protocol: NCI tumour cell line growth inhibition, 48 h
The source made the active and inactive calls. No stated cut-off is given here; in the data, active = GI50 up to about 1.1 µM and inactive = higher.
Possible outcomes: yes (active), no (inactive)

[
  {
    "compound": "N#CC(C#N)=CNC(N)=S",
    "label.value": "no"
  },
  {
    "compound": "Cc1ccc(-c2nc(-c3nccc4ccccc34)oc2-c2ccccc2)cc1",
    "label.value": "no"
  },
  {
    "compound": "C=CCNC1=C2C[C@@H](C)C[C@H](OC)[C@H](O)[C@@H](C)/C=C(\\C)[C@H](OC(N)=O)[C@@H](OC)/C=C\\C=C(/C)C(=O)NC(=CC1=O)C2=O [TANESPIMYCIN]",
    "label.value": "yes"
  },
  {
    "compound": "N#CC(=N)c1ncn(-c2ccccc2N)c1N",
    "label.value": "no"
  }
]

----------
Test system: SR
test.protocol: NCI tumour cell line growth inhibition, 48 h
The source made the active and inactive calls. Rule as the data show it: active = GI50 up to about 1.1 µM and inactive = higher.

[
  {
    "molecule": "CCOc1ccc(NC(=O)CCc2nnc(SC)o2)cc1",
    "GI50": "> 100 µM (inactive)"
  },
  {
    "molecule": "NCCC(N)C(=O)O (configuration not stated)",
    "GI50": "> 100 µM (inactive)"
  },
  {
    "molecule": "CN(C)CCC(=O)/C=C\\c1ccccc1",
    "GI50": "15 µM (inactive)"
  },
  {
    "molecule": "COc1ccc(C(=O)C2=NON3OC23C(=O)c2ccc(OC)cc2)cc1 (configuration not stated)",
    "GI50": "2.56 µM (inactive)"
  },
  {
    "molecule": "Cc1sc(NC=C2C(=O)CC(C)(C)CC2=O)nc1-c1ccccc1",
    "GI50": "> 100 µM (inactive)"
  },
  {
    "molecule": "Cc1nc2cccc([N+](=O)[O-])c2c(NCCCN(C)C)c1C",
    "GI50": "> 34.5 µM (inactive)"
  },
  {
    "molecule": "COc1ccc(OC)c(N2C(=O)/C(=C\\c3ccccc3)SC2c2cc(OC)c(OC)c(OC)c2)c1 (configuration not stated)",
    "GI50": "33.7 µM (inactive)"
  }
]

----------
Test system: K562
test.protocol: NCI tumour cell line growth inhibition, 48 h
Activity calls are given as the source filed them. Cut-off read from the data, not from the text of the source: active = GI50 up to about 1.1 µM and inactive = higher.
Possible outcomes: TRUE for active, FALSE for inactive

[
  {
    "compound": "CCOC(=O)c1c(NC(=O)c2ccccc2)sc2c1CCCC2",
    "label.value": "FALSE"
  },
  {
    "compound": "COc1cc2c(c(OC)c1OC)C(=O)[C@H](O)[C@H]2NC(N)=O",
    "label.value": "FALSE"
  },
  {
    "compound": "COC(=O)[C@@]12OC[C@]34C([C@@H](O)C1O)[C@@]1(C)CC(=O)C(OC(=O)/C=C(/c5ccccc5)C(F)(F)F)=C(C)C1C[C@H]3OC(=O)[C@H](O)[C@H]42 (stereo not given in full)",
    "label.value": "FALSE"
  },
  {
    "compound": "CCCCOC(=O)NC(=O)c1cn(CCCOC(=O)NCCCCCCNC(=O)OCCCn2cc(C(=O)NC(=O)OCCCC)c(=O)[nH]c2=O)c(=O)[nH]c1=O",
    "label.value": "FALSE"
  },
  {
    "compound": "Clc1ccc2c(c1)CC1C[N+]3=C(CCCCC3)C1=C2 (stereo not given)",
    "label.value": "FALSE"
  },
  {
    "compound": "COc1ccc2c(c1)nc1n2C(c2c(F)cccc2Cl)SC1 (stereo not given)",
    "label.value": "FALSE"
  },
  {
    "compound": "CC(C)(C)OC(=O)/C=C/[C@@H](CCC(=O)/C=C/[C@H](/C=C\\CCCC(=O)O)NC1(c2ccccc2)c2ccccc2-c2ccccc21)O[Si](C)(C)C(C)(C)C",
    "label.value": "FALSE"
  },
  {
    "compound": "CC[C@H](C)[C@H]1NC(=O)[C@@H](NC(=O)[C@@H](CC(C)C)N(C)CC2CCCN2C(=O)C(C)=O)[C@@H](C)OC(=O)[C@H](Cc2ccc(OC)cc2)N(C)C(=O)C2CCCN2C(=O)[C@H](CC(C)C)NC(=O)[C@@H](C)C(=O)[C@H](C(C)C)OC(=O)C[C@@H]1O (stereo not given in full)",
    "label.value": "TRUE"
  },
  {
    "compound": "Cc1ccc(NC(c2ccccc2)P(=O)(c2ccccc2)c2ccccc2)cc1 (stereo not given)",
    "label.value": "FALSE"
  },
  {
    "compound": "COC(=O)CCC(=O)c1ccc2c(c1)CC1(C2)Cc2ccc(C(=O)CCC(=O)OC)cc2C1",
    "label.value": "FALSE"
  }
]
